Field: parasite growth, % of DMSO control. Provide a value for each of the compounds that follow.
Test: qHTS profiling of the MIPE4 collection as inhibitors of Plasmodium falciparum (3D7) proliferation (AID 743344);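 further: scaled between DMSO vehicle wells and 0.29 µM artemisinin as full inhibition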
Conditions: P. falciparum 3D7 in erythrocytes, SYBR Green DNA fluorescence, 72 h; at 28.5 µM
Express the result in % but write the number alone.

GET /value?item= "COc1ccc(C(=O)c2c(C)n(CCN3CCOCC3)c3cc(I)ccc23)cc1" &field=parasite growth, % of DMSO control returns 44.6

GET /value?item= "C[C@]12CC[C@@H]3[C@@H](CCC4=CC(=O)CC[C@@H]43)[C@@H]1CC[C@@H]2OC(=O)CCc1ccccc1" &field=parasite growth, % of DMSO control returns 65.4

GET /value?item= C#CC1(O)CCC2C3CCC4=CC(=O)CCC4(C)C3CCC21C (stereo unspecified) &field=parasite growth, % of DMSO control returns 78.6

GET /value?item= "O=[N+]([O-])c1ncc[nH]1" &field=parasite growth, % of DMSO control returns 89

GET /value?item= "O=S(=O)(F)Cc1ccccc1" &field=parasite growth, % of DMSO control returns 95.8

GET /value?item= COc1ccc2c(c1)CN(C)CC2c1ccc(Cl)c(Cl)c1 (stereo unspecified) &field=parasite growth, % of DMSO control returns 12.3

GET /value?item= "CC=C(C)C(=O)O[C@H]1C(C)=C2[C@@H]3OC(=O)[C@@](C)(O)[C@@]3(O)[C@@H](OC(=O)CCC)C[C@](C)(OC(C)=O)[C@@H]2[C@@H]1OC(=O)CCCCCCC" &field=parasite growth, % of DMSO control returns 15.2

GET /value?item= "CC(=O)OCC1=C(C(=O)O)N2C(=O)[C@@H](N)[C@@H]2SC1" &field=parasite growth, % of DMSO control returns 90.9

GET /value?item= CCCC[N+]1(C)[C@H]2CC(OC(=O)[C@H](CO)c3ccccc3)C[C@H]1[C@H]1O[C@H]12 (stereo partly specified) &field=parasite growth, % of DMSO control returns 98.9

GET /value?item= "O=C(Oc1ccc([N+](=O)[O-])cc1)N1CCN(Cc2cccc(Oc3ccccc3)c2)CC1" &field=parasite growth, % of DMSO control returns 95.8

GET /value?item= "CCNC(=O)C[C@@H]1N=C(c2ccc(Cl)cc2)c2cc(OC)ccc2-n2c(C)nnc21" &field=parasite growth, % of DMSO control returns 76.4

====

Assay: Quantitative High-Throughput drug screen in 47 multiple myeloma cell lines against the NCATS MIPE library collection: NCIH929_DSMZ cell viability assay (AID 1918978); further: nearly all actives have a fitted effect of over 35% in size
Conditions: NCI-H929 myeloma viability, CellTiter-Glo ATP, 48 h; series mostly up to 45.8 µM
Results filed as inconclusive are left out. Activity calls are given as the source filed them. Calls come from the whole dose curve; as a rule, active = well fitted cell-killing curve with a large enough effect; inconclusive = small, poorly fitted or top-dose-only effect; inactive = no such curve, though single readings can be large or run the other way.
Pick one: y (active), n (inactive)

Query block: // return assay outcome for "CC(C)(O)C(=O)Nc1ccc([N+](=O)[O-])c(C(F)(F)F)c1"
Result block: y

Query block: // return assay outcome for "CN1CCN(c2ccc([N+](=O)[O-])c3no[n+]([O-])c23)CC1"
Result block: y

Query block: // return assay outcome for "CC[C@@]1(O)C(=O)OCc2c1cc1n(c2=O)Cc2cc3ccccc3nc2-1"
Result block: y

Query block: // return assay outcome for CN1[C@H]2CC(O)C[C@H]1[C@H]1O[C@H]12 (some centres undefined)
Result block: y

Query block: // return assay outcome for "C[C@@H]1O[C@@H](O[C@@H]2C=C3CC[C@@H]4[C@@H](CC[C@]5(C)[C@H](c6ccc(=O)oc6)CC[C@@]45O)[C@@]3(C)CC2)[C@H](O)[C@H](O)[C@H]1O"
Result block: y

Query block: // return assay outcome for "CC(=Cc1csc(C)n1)[C@@H]1C[C@H]2O[C@@H]2CCC[C@H](C)[C@@H](O)[C@@H](C)C(=O)C(C)(C)[C@@H](O)CC(=O)O1"
Result block: n

Query block: // return assay outcome for "O=C(NCC1CCOCC1)c1cnc(Nc2ccc(Cl)cc2Cl)nc1C(F)(F)F"
Result block: y

Query block: // return assay outcome for NC1=NC(=O)N2CC12 (centres undefined)
Result block: y

Query block: // return assay outcome for "CC1=NN=C(c2ccc(N)cc2)c2cc3c(cc2C1)OCO3"
Result block: n

Query block: // return assay outcome for "CC(=O)Nc1ccc(OC[C@](C)(O)C(=O)Nc2ccc([N+](=O)[O-])c(C(F)(F)F)c2)cc1"
Result block: n

Query block: // return assay outcome for "COC[C@H]1OC(=O)c2coc3c2[C@@]1(C)C1=C(C3=O)[C@@H]2CC[C@H](O)[C@@]2(C)C[C@@H]1OC(C)=O"
Result block: y

Query block: // return assay outcome for "C[C@@]12OC(=O)[C@]1([C@@H](O)[C@@H]1C=CCCC1)NC(=O)[C@H]2CCCl"
Result block: y

Query block: // return assay outcome for "COC(=O)[C@@H](N)CCCN=C(N)N[N+](=O)[O-]"
Result block: n

Query block: // return assay outcome for "CC(C)N[C@@H]1CCn2c(=O)[nH]c3cccc(c32)[C@@H]1O"
Result block: y

Query block: // return assay outcome for "CC(O)=C(C#N)C(=O)Nc1cc(Br)ccc1Br"
Result block: n

Query block: // return assay outcome for "O=C(Nc1ccncc1)C(=O)c1cn(Cc2ccc(Cl)cc2)c2ccccc12"
Result block: y

Query block: // return assay outcome for "CC(C)N(CCNC(=O)CN1CCCC1=O)C(C)C"
Result block: n

Query block: // return assay outcome for "C[C@]12CCC(=O)C(O)=C1CC[C@@H]1[C@H]3CCC(=O)[C@@]3(C)CC[C@@H]12"
Result block: n

Query block: // return assay outcome for "C#C[C@]1(O)C=C[C@@H]2[C@@H]3CCC4=CC(=O)CC[C@@H]4[C@H]3CC[C@@]21CC"
Result block: n
